# experimental-protocol: Solubility of compound at pH 6.5
# Format: physicochemical
# setup-conditions: buffer
result-type: log10(solubility) (log10 of the value in µg/mL)

>>> print(df.to_string())
                            structure_string  value_measured
 0  O=C(NCCN1CCOCC1)c1cc2cc(Cl)cc(Br)c2oc1=O            2.60
 1  O=C(NCCN1CCOCC1)c1cc2cc(Br)cc(Br)c2oc1=O            2.70
 2     CN(C)CCNC(=O)c1cc2cc(Cl)cc(Br)c2oc1=O            3.38
 3  O=C(Nc1ccc(Cl)cc1O)c1cc2cc(Cl)cc(Br)c2oc1=O           -0.96
 4  O=C(Nc1ccccc1)c1cc2cc(CN3CCCCC3)ccc2oc1=O            2.85
 5  O=C(Nc1ccccc1)c1cc2cc(CN3CCCC3)ccc2oc1=O            3.53
 6        O=C(Nc1ccccc1)c1cc2cc(CO)ccc2oc1=O            1.72
 7  NCCNC(=O)c1cc2cc(Cl)cc(Br)c2oc1=O.O=C(O)C(F)(F)F            4.79
 8     CN(C)CCNC(=O)c1cc2cc(Cl)cc(Cl)c2oc1=O            3.34
 9   O=C(Nc1ccccc1O)c1cc2cc(Cl)cc(Br)c2oc1=O           -0.15
10  O=C(NCCN1CCOCC1)c1cc2cc(Cl)cc(Cl)c2oc1=O            2.60
11   Cl.NCc1ccc2oc(=O)c(C(=O)Nc3ccccc3)cc2c1            4.00
12     CN(C)CCNC(=O)c1cc2cc(Br)cc(Br)c2oc1=O            3.48
13    O=C(Nc1ccccc1)c1cc2cc(Cl)cc(Br)c2oc1=O           -0.23
14  O=C(Nc1ccc(O)cc1)c1cc2cc(Cl)cc(Br)c2oc1=O            0.18
15  O=C(Nc1ccccc1)c1cc2cc(CN3CCOCC3)ccc2oc1=O            1.68
16  O=C(O)c1cc(Cl)ccc1NC(=O)c1cc2cc(Cl)cc(Br)c2oc1=O            1.56
17  O=C(Nc1cc(Cl)ccc1O)c1cc2cc(Cl)cc(Br)c2oc1=O           -1.00
18  CCN(CC)Cc1ccc2oc(=O)c(C(=O)Nc3ccccc3)cc2c1            3.46
19  O=C(Nc1cccc(O)c1)c1cc2cc(Cl)cc(Br)c2oc1=O            0.15
